# Species: Rattus norvegicus
# assay overview: Open TG-GATES - Regimen: Single
# Assay type: toxicity, organism-based, Sprague-Dawley
# Design: regimen Single, gender Male, age 6 weeks
# measurement parameters: in vivo, po, 1000 mg/kg, 24 h, tissue Plasma, route gavage, dose level High

sample smiles | unit symbol | AST
Cc1nnc2n1-c1ccc(Cl)cc1C(c1ccccc1Cl)=NC2 | IU/L | 60.2
O=C(OC[C@H]1O[C@@H](OC(=O)c2cc(O)c(O)c(OC(=O)c3cc(O)c(O)c(O)c3)c2)[C@H](OC(=O)c2cc(O)c(O)c(OC(=O)c3cc(O)c(O)c(O)c3)c2)[C@@H](OC(=O)c2cc(O)c(O)c(OC(=O)c3cc(O)c(O)c(O)c3)c2)[C@@H]1OC(=O)c1cc(O)c(O)c(OC(=O)c2cc(O)c(O)c(O)c2)c1)c1cc(O)c(O)c(OC(=O)c2cc(O)c(O)c(O)c2)c1 | IU/L | 62.4
